src = patent US20240300917A1

// reported melting point for each item listed
measured_metric: melting point

1. C[C@@H]1N=C(c2cnc3c(F)cccc3c2)c2cccc(Cl)c2[C@@H]1C (racemic); 100 to 102 °C
2. Cc1ccc2c(c1Cl)[C@H](C)[C@H](C)N=C2c1cnc2c(F)cccc2c1 (racemic); 84 to 86 °C
3. Cc1ccc2c(c1Cl)[C@@H](C)[C@H](C)N=C2c1cnc2c(F)cccc2c1 (racemic); 82 to 84 °C
4. Cc1ccc2c(c1C#N)[C@H](C)[C@H](C)N=C2c1cnc2c(F)c(F)ccc2c1 (racemic); 140 to 142 °C

====

// reported melting point for each item listed
measured_metric: melting point

1. Cc1ccc2c(c1C#N)[C@H](C)[C@H](C)N=C2c1cnc2c(F)cccc2c1 (racemic); 164 to 166 °C
2. C[C@@H]1N=C(c2cnc3c(F)cccc3c2)c2cccc(Br)c2[C@H]1C (racemic); 132 to 134 °C
3. C[C@@H]1N=C(c2cnc3c(F)cccc3c2)c2cccc(Cl)c2[C@H]1C (racemic); 112 to 114 °C
